meta.source: ChEMBL document CHEMBL5352402

Below are IC50 values recorded for Histone-lysine N-methyltransferase EHMT2 (Homo sapiens).
endpoint label: IC50 (µM)

I = Cc1oc2ncn(CCCN3CCCCC3)c(=O)c2c1C(=O)Nc1ccc(S(N)(=O)=O)nc1
II = Cc1oc2ncn(CCCN3CCCC3)c(=O)c2c1C(=O)Nc1ccc(S(N)(=O)=O)nc1
Problem: Which value of IC50 is smaller, the one for I or the one for II ? # answer = label of selected item
Result: I
(I: 14.9 µM, II: 308 µM)

* * *

test system: DNA (cytosine-5)-methyltransferase 1 (Homo sapiens)
Sequence (P26358 whole entry): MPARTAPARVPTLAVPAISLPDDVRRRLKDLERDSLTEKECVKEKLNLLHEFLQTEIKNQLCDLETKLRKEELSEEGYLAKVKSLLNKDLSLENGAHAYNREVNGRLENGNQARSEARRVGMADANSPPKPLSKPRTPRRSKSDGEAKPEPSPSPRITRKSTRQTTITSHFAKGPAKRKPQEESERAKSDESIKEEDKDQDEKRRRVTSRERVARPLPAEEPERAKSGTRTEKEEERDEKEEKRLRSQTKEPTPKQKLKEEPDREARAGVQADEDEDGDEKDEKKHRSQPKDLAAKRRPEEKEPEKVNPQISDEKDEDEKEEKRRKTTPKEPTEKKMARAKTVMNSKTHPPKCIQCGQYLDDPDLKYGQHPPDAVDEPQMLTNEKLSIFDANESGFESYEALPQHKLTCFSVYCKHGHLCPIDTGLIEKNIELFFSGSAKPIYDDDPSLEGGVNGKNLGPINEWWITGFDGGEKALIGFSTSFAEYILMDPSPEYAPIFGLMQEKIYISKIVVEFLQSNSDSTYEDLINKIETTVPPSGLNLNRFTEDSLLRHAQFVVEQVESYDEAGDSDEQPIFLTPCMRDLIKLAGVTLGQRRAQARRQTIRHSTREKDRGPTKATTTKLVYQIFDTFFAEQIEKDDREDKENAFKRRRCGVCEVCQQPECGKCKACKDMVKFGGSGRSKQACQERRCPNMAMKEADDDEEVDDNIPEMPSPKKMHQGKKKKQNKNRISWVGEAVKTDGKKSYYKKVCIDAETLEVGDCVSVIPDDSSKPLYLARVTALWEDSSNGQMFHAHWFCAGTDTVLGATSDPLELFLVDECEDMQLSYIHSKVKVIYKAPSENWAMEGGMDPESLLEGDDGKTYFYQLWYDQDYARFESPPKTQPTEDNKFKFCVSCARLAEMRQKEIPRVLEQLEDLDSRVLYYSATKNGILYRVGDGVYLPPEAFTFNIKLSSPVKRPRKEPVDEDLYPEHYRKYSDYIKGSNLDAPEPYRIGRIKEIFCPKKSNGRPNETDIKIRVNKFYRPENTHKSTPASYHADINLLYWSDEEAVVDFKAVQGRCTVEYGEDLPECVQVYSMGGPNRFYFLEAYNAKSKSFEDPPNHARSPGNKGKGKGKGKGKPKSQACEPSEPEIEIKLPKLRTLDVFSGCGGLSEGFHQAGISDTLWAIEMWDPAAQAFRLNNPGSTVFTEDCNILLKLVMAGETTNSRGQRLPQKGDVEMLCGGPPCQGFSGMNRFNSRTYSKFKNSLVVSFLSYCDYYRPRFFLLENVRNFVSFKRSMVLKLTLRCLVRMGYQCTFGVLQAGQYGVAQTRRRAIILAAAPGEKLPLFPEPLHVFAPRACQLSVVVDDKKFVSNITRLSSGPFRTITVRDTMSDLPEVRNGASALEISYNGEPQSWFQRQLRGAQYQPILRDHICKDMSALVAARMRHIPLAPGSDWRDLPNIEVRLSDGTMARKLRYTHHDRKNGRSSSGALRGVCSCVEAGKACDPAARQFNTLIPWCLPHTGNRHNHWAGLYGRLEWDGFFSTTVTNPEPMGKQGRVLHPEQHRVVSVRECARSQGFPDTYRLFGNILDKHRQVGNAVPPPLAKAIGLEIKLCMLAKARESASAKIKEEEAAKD
experiment description: Inhibition of N-terminal GST-tagged full-length recombinant human DNMT1 assessed as DNA methylation using pdI-pdC DNA as substrate preincubated for 15 mins followed by substrate addition in presence of [3H]-SAM and measured after 150 mins by radioactive methylation assay
pIC50: −log10 of the molar value.
endpoint label: pIC50

Cc1oc2ncn(CCCN3CCCC3)c(=O)c2c1C(=O)Nc1ccc(S(N)(=O)=O)nc1; 5.02
Cc1oc2ncn(CCN(C)C)c(=O)c2c1C(=O)Nc1ccc(S(N)(=O)=O)nc1; 4.68
Cc1oc2ncn(CCN3CCCC3)c(=O)c2c1C(=O)Nc1ccc(S(N)(=O)=O)nc1; 4.89

a = Cc1oc2ncn(CCCN3CCCCC3)c(=O)c2c1C(=O)Nc1ccc(S(N)(=O)=O)nc1
b = Cc1oc2ncn(CCN3CCCCC3)c(=O)c2c1C(=O)Nc1ccc(S(N)(=O)=O)nc1
Problem: Which one would you say has the larger pIC50 value: a , or b ? # answer = label of selected item
Result: a
